measured on: hGLP-1R (Homo sapiens)
run description: Functional cAMP activation in the presence of 0.1% casein (no HSA);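 further: intracellular cAMP rise after 30 min at 37 °C read by HTRF, normalized between buffer only (0%) and maximal control ligand (100%), four-parameter variable-slope fit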
Format: cell-based
run parameters: in the presence of 0.1% casein (no HSA); geometric mean; read-out: Relative cAMP EC50, hGLP-1R
pEC50: −log10 of the molar value. Starred links: 1 amine or outer side, 2 acyl side, 3 side chain; linkers in the order of their positions; H or OH if unused. Non-standard residues stand in square brackets, D forms with d. Groups on a side chain read outwards from the residue. *: point of attachment. C20 diacid = O=C(O)CCCCCCCCCCCCCCCCCCC(=O)*; C18 diacid = O=C(O)CCCCCCCCCCCCCCCCC(=O)*; γGlu = O=C(O)[C@H](CCC(=O)[*:2])N[*:1]; αMe4Pal = C[C@](N)(Cc1ccncc1)C(=O)O; αMeY = C[C@](N)(Cc1ccc(O)cc1)C(=O)O; αMeF = C[C@](N)(Cc1ccccc1)C(=O)O; 4Pal = N[C@@H](Cc1ccncc1)C(=O)O; αMeL = CC(C)C[C@](C)(N)C(=O)O; αMeS = C[C@](N)(CO)C(=O)O; Orn = NCCC[C@H](N)C(=O)O; AEEA = NCCOCCOCC(=O)O; Aib = CC(C)(N)C(=O)O
# pEC50 annotations

substance: H-Y[Aib]QGTFTSDYSI[αMeL]LDKQAAK([AEEA-AEEA-γGlu-C20 diacid])QFVEWLIA[Aib]GPSSGEPPPGTG-NH2 [Example 336]
pEC50: 9.04

substance: H-Y[Aib]QGT[αMeF]TSD[4Pal][αMeS]I[αMeL]LD[Orn]K([γGlu-γGlu-C18 diacid])AQ[αMe4Pal]EFI[dE][αMeY]LIEGGPSSGEPPPSGGGE-NH2 [Example 1175]
pEC50: 9.24

substance: H-Y[Aib]QGTFTSDYSI[αMeL]LDKIAAK([AEEA-AEEA-γGlu-C20 diacid])[Orn]FVQYLIAGGPSSGEPPPSEG-NH2 [Example 308]
pEC50: 8.50

substance: H-Y[Aib]QGTFTSDFSK[αMeL]LDKK([AEEA-γGlu-C20 diacid])AQ[Aib]AFIEYLLEGGPSSGEPPPGEG[AEEA]-NH2 [Example 54]
pEC50: 8.40

substance: H-Y[Aib]QGTFTSDFS[Orn][αMeL]LDKK([AEEA-γGlu-C18 diacid])AQ[Aib]AFIEYLLEGGPSSGAPPPGGQ-NH2 [Example 159]
pEC50: 8.38

substance: H-Y[Aib]QGTFTSD[4Pal]SQ[αMeL]LD[Orn]K([AEEA-γGlu-C18 diacid])AQ[αMe4Pal]AFIE[αMeY]LIA[Aib]GPSSGEPPPSGSEE-NH2 [Example 1099]
pEC50: 9.14

----------
Attribute: pEC50
measured on: hGLP-1R (Homo sapiens, UniProt P43220)
Sequence (P43220 24-463): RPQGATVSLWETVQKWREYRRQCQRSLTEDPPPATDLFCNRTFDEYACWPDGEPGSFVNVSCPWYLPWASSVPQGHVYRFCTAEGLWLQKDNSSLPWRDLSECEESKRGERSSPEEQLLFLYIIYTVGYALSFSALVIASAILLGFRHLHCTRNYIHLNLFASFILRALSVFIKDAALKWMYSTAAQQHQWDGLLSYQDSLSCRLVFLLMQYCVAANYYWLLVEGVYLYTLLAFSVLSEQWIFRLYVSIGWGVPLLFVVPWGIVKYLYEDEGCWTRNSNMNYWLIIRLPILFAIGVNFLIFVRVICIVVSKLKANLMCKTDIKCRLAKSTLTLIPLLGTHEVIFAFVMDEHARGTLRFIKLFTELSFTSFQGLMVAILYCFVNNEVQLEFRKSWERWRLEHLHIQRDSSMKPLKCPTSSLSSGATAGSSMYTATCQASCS
run description: Functional cAMP activity in the presence of 1% HSA
Format: cell-based
run parameters: read-out: cAMP Rel EC50, hGLP-1R
pEC50: −log10 of the molar value. Starred links: 1 amine or outer side, 2 acyl side, 3 side chain; linkers in the order of their positions; H or OH if unused. Non-standard residues stand in square brackets, D forms with d. Groups on a side chain read outwards from the residue. No end group written: not given here. *: point of attachment. C20 diacid = O=C(O)CCCCCCCCCCCCCCCCCCC(=O)*; C18 diacid = O=C(O)CCCCCCCCCCCCCCCCC(=O)*; αMePhe(2-F) = C[C@](N)(Cc1ccccc1F)C(=O)O; γGlu = O=C(O)[C@H](CCC(=O)[*:2])N[*:1]; αMe4Pal = C[C@](N)(Cc1ccncc1)C(=O)O; αMeY = C[C@](N)(Cc1ccc(O)cc1)C(=O)O; 4Pal = N[C@@H](Cc1ccncc1)C(=O)O; αMeL = CC(C)C[C@](C)(N)C(=O)O; αMeS = C[C@](N)(CO)C(=O)O; Orn = NCCC[C@H](N)C(=O)O; AEEA = NCCOCCOCC(=O)O; Aib = CC(C)(N)C(=O)O

substance: H-Y[Aib]QGTFTSDYSI[αMeL]LDKIAAK([AEEA-AEEA-γGlu-C20 diacid])QFVQWLIE[Aib]GPSSGEPPPSEG-NH2 [Example 323]
pEC50: 6.53
//
substance: H-Y[Aib]QGTFTSDFS[Orn][αMeL]LDKK([AEEA-γGlu-C18 diacid])AQ[Aib]AFIEWLLEGGESSGAPPPEGS-NH2 [Example 125]
pEC50: 5.98
//
substance: H-Y[Aib]QGTFTSD[4Pal]SK[αMeL]LDKK([AEEA-γGlu-C18 diacid])AQ[Aib]AFIEYLIE[Aib]GPSSGAPPPSGSE-NH2 [Example 901]
pEC50: 6.71
//
substance: H-Y[Aib]QGT[αMePhe(2-F)]TSD[4Pal]SILLDKK([γGlu-γGlu-C18 diacid])AQ[Aib]AFIE[4Pal]LEEGGPSSGAPPPSGTE-NH2 [Example 550]
pEC50: 6.58
//
substance: H-Y[Aib]QGT[αMePhe(2-F)]TSD[4Pal]SI[αMeL]LD[Orn][Orn]([γGlu-γGlu-C18 diacid])AQ[αMe4Pal][Orn]FI[dE][αMeY]LIEGGPSSGEPPPETE-NH2 [Example 1209]
pEC50: 7.42
//
substance: H-Y[Aib]QGT[αMePhe(2-F)]TSD[4Pal][αMeS]I[αMeL]LD[Orn]K([γGlu-γGlu-C18 diacid])AQ[Aib][Orn]FI[dE][αMeY]LAEGGPSSGEPPPSGEEE-NH2 [Example 592]
pEC50: 7.25
//
substance: H-Y[Aib]QGTFTSDFS[Orn][αMeL]LDKK([AEEA-AEEA-γGlu-C18 diacid])AQ[Aib]AFIEYLLE[Aib]GESSGAPPPSGT-NH2 [Example 180]
pEC50: 6.05
//
substance: H-Y[Aib]QGT[αMePhe(2-F)]TSD[4Pal][αMeS]I[αMeL]LD[Orn]K([γGlu-γGlu-C18 diacid])AQ[αMe4Pal]EFI[dE][αMeY]LIEGGPPS[Aib][Orn]PPP[Orn]GE-NH2 [Example 1227]
pEC50: 7.40
//
substance: H-Y[Aib]QGTFTSD[4Pal]SR[αMeL]LDKK([γGlu-γGlu-C18 diacid])AQ[αMe4Pal]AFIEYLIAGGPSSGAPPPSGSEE-NH2 [Example 962]
pEC50: 6.88
//
substance: Y[Aib]QGTFTSD[4Pal]SQ[αMeL]LD[Orn]K([γGlu-γGlu-C18 diacid])AQ[αMe4Pal]QFIE[αMeY]LIEGGPSSGEPPPSGSEE-NH2 [Example 1026]
pEC50: 6.52
//
substance: H-Y[Aib]QGT[αMePhe(2-F)]TSD[4Pal][αMeS]I[αMeL]LD[Orn]K([γGlu-γGlu-C18 diacid])AQ[Aib]NFI[dE][αMeY]LQEGGPSSGEPPPEGT-NH2 [Example 525]
pEC50: 7.69

Each recorded value in this set is attributed to patent US20240270821A1.
